Test: Half life in BALB/c mouse at 25 mg/kg, po
Type: ADME, organism-based
Set-up: dose 25 mg/kg, route oral
Conditions: in vivo
recorded_endpoint: half-life (min)

# smiles_record, recorded_endpoint, measurement
records = [
    ("NC1(Cc2ccc(Cl)cc2)CCN(c2ncnc3[nH]ccc23)CC1", "half-life", 34.2),
]

----------
Assay: Metabolic stability in BALB/c mouse liver microsomes at 10 uM after 30 mins
Format: ADME, Microsome
Details: read-out: Stability
recorded_endpoint: remaining at 0.5 h, 10 µM (%)

# smiles_record, measurement
records = [
    ("NC1(Cc2ccc(Cl)cc2)CCN(c2ncnc3[nH]ccc23)CC1", 87),
]

----------
Test: Cmax in BALB/c mouse at 25 mg/kg, iv
Format: ADME, organism-based
Set-up: dose 25 mg/kg, route intravenous
Settings: in vivo
recorded_endpoint: Cmax

# smiles_record, recorded_endpoint, measurement
records = [
    ("NC1(Cc2ccc(Cl)cc2)CCN(c2ncnc3[nH]ccc23)CC1", "Cmax", "6.36 µM"),
]

----------
Assay: Metabolic stability in human liver microsomes at 10 uM after 30 mins
Assay type: ADME, Microsome
Conditions: read-out: Stability

# smiles_record, remaining at 0.5 h, 10 µM
records = [
    ("NC1(Cc2ccc(Cl)cc2)CCN(c2ncnc3[nH]ccc23)CC1", "79%"),
]

----------
Assay: Tmax in BALB/c mouse at 25 mg/kg, iv
Type: ADME, organism-based
Design: dose 25 mg/kg, route intravenous
Details: in vivo
recorded_endpoint: Tmax

# smiles_record, recorded_endpoint, measurement
records = [
    ("NC1(Cc2ccc(Cl)cc2)CCN(c2ncnc3[nH]ccc23)CC1", "Tmax", "4.98 min"),
]

----------
Experiment: Inhibition of recombinant catalytic subunit PKA by radiometric filter binding assay
Each entry below carries its reported IC50.
recorded_endpoint: IC50 (nM)

# molecule, recorded_endpoint, measurement
rows = [
    ("NCC1CCN(c2ncnc3[nH]cnc23)CC1", "IC50", 890),
    ("NCC1(c2ccc(Cl)cc2)CCN(c2ncnc3[nH]ccc23)CC1", "IC50", 5),
    ("NC(c1ccc(Cl)cc1)C1CCN(c2ccnc3[nH]ccc23)CC1 (configuration not stated)", "IC50", 3),
    ("NC1CCN(c2ncnc3[nH]ccc23)CC1", "IC50", 1550),
    ("NC1(c2ccc(Cl)cc2)CCN(c2ncnc3[nH]ccc23)CC1", "IC50", 15),
    ("NCC1CCN(c2ncnc3[nH]ncc23)CC1", "IC50", 2400),
    ("NCC1(Cc2ccc(Cl)cc2)CCN(c2ncnc3[nH]ccc23)CC1", "IC50", 9),
]

----------
Assay: Oral bioavailability in BALB/c mouse at 25 mg/kg
Type: ADME, organism-based
Settings: in vivo

# smiles_record, bioavailability / %
rows = [
    ("NC1(Cc2ccc(Cl)cc2)CCN(c2ncnc3[nH]ccc23)CC1", 8.5),
]
